All figures here come from paper PMC1807944.

target: HIV-1 integrase (IN), monomer E (HIV-1, UniProt P04585 1148-1435); assay: SAXS titration
OBSERVATION TYPE: pKd
Notebook: values listed as pKd are -log10 of the concentration (mol/L).

Provide only the value of recorded pKd for GTGTGGAAAATCTCTAGCAGT (ssDNA) [ss 21-GT] 7.97
